Assay read-out AC50; system under study: Histamine H1 receptor (Homo sapiens, UniProt P35367). Further: assay procedure not described here.
Sequence (P35367 whole entry): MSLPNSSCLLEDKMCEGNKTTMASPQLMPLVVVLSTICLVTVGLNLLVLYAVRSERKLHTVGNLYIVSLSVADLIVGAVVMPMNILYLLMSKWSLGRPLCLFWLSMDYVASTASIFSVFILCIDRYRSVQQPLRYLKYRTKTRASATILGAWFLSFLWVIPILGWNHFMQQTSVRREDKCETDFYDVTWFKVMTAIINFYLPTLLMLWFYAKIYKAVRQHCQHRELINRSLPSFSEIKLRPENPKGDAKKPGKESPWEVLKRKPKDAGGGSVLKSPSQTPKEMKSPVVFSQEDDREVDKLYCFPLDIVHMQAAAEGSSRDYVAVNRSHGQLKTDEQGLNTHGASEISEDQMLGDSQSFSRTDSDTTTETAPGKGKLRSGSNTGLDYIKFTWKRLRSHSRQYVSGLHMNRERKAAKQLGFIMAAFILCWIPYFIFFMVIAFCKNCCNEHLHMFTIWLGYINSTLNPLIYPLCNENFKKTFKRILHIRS

{"columns": ["compound", "test.target", "AC50"],
 "data": [
  ["CC(C)N(CCC(C(N)=O)(c1ccccc1)c1ccccn1)C(C)C (configuration not stated) [DISOPYRAMIDE]", "Histamine H1 receptor (Homo sapiens, UniProt P35367)", "> 10 µM"],
  ["CCOC(=O)O[C@]1(C(=O)OCCl)CC[C@H]2[C@@H]3CCC4=CC(=O)C=C[C@]4(C)[C@H]3[C@@H](O)C[C@@]21C [LOTEPREDNOL ETABONATE]", "Histamine H1 receptor (Homo sapiens, UniProt P35367)", "> 30 µM"]
]}

input: Query for Histamine H1 receptor (Homo sapiens, UniProt P35367): what AC50 does the record show for CCN(CC)CCN1C(=O)CN=C(c2ccccc2F)c2cc(Cl)ccc21 ?
output: > 10 µM
